assay: Pharmacokinetic study in rats after oral administration of GLGZG (UPLC-MS/MS of plasma); assay type: in vivo, rat; conditions: rat plasma, male SD rats, oral GLGZG 3.6 g·(kg·day)^−1, n = 6; read-out: T 1/2z
Collected half-life values appear next to each entry.
measurement-type: half-life (h)

- smiles-structure: "O=C(/C=C/c1ccc(O[C@@H]2O[C@H](CO)[C@@H](O)[C@H](O)[C@H]2O)cc1)c1ccc(O)cc1O"
  numeric-value: 4.6
- smiles-structure: "O=C1C[C@@H](c2ccc(O[C@@H]3O[C@H](CO)[C@@H](O)[C@H](O)[C@H]3O)cc2)Oc2cc(O)ccc21"
  numeric-value: 5.16
- smiles-structure: "C[C@@]12C[C@@]3(O)O[C@@H](O1)[C@]1(COC(=O)c4ccccc4)[C@H]3C[C@@]12O[C@@H]1O[C@H](CO)[C@@H](O)[C@H](O)[C@H]1O"
  numeric-value: 2.38

====

In this section we review reported Stability (24 h at room temperature) Mean values for a set of compounds.
experiment: Stability of analytes in rat plasma samples (method validation); assay type: in vitro ADME; settings: 25°C for 24 h, middle QC nominal concentration, n = 6
measurement-type: Stability (24 h at room temperature) Mean (%)

- compound: "O=C(/C=C/c1ccc(O)cc1)c1ccc(O)cc1O"
  endpoint-unit: "%"
  numeric-value: 93.66
- compound: "O=C(/C=C/c1ccc(O[C@@H]2O[C@H](CO)[C@@H](O)[C@H](O)[C@H]2O)cc1)c1ccc(O)cc1O"
  endpoint-unit: "%"
  numeric-value: 99.28
- compound: "C[C@@]12C[C@@]3(O)O[C@@H](O1)[C@]1(COC(=O)c4ccccc4)[C@H]3C[C@@]12O[C@@H]1O[C@H](CO)[C@@H](O)[C@H](O)[C@H]1O"
  endpoint-unit: "%"
  numeric-value: 91.25
- compound: "CC12CC(O)C3CC1(OC1OC(CO)C(O)C(O)C1O)C3(COC(=O)c1ccccc1)C(=O)O2 (centres unmarked)"
  endpoint-unit: "%"
  numeric-value: 93.66
- compound: "CC1(C)[C@@H](O[C@H]2O[C@H](C(=O)O)[C@@H](O)[C@H](O)[C@H]2O[C@@H]2O[C@H](C(=O)O)[C@@H](O)[C@H](O)[C@H]2O)CC[C@]2(C)[C@H]3C(=O)C=C4[C@@H]5C[C@@](C)(C(=O)O)CC[C@]5(C)CC[C@@]4(C)[C@]3(C)CC[C@@H]12"
  endpoint-unit: "%"
  numeric-value: 92.18

====

The compounds listed here are annotated with their Freeze-thaw stability (3 cycles) Mean.
experiment: Stability of analytes in rat plasma samples (method validation); type: in vitro ADME; conditions: three freeze-thaw cycles at −80°C, high QC nominal concentration, n = 6
measurement-type: Freeze-thaw stability (3 cycles) Mean (%)

- compound: "CC12CC(O)C3CC1(OC1OC(CO)C(O)C(O)C1O)C3(COC(=O)c1ccccc1)C(=O)O2 (centres unmarked)"
  numeric-value: 98.89
- compound: "O=C(/C=C/c1ccc(O)cc1)c1ccc(O)cc1O"
  numeric-value: 109.21
- compound: "O=C(/C=C/c1ccc(O[C@@H]2O[C@H](CO)[C@@H](O)[C@H](O)[C@H]2O)cc1)c1ccc(O)cc1O"
  numeric-value: 108.88
- compound: "CC1(C)[C@@H](O[C@H]2O[C@H](C(=O)O)[C@@H](O)[C@H](O)[C@H]2O[C@@H]2O[C@H](C(=O)O)[C@@H](O)[C@H](O)[C@H]2O)CC[C@]2(C)[C@H]3C(=O)C=C4[C@@H]5C[C@@](C)(C(=O)O)CC[C@]5(C)CC[C@@]4(C)[C@]3(C)CC[C@@H]12"
  numeric-value: 98.20
- compound: "O=C1C[C@@H](c2ccc(O[C@@H]3O[C@H](CO)[C@@H](O)[C@H](O)[C@H]3O)cc2)Oc2cc(O)ccc21"
  numeric-value: 97.91
